# Assayed target: T1, soluble HLA-A2 MAGE-A4 (…) tetramer (human)
# T1 construct: Bought tetramer reagent; also called MAGE-A4/HLA tetramer reagent; HLA-A02:01 MAGE-A4 tetramer
# Protocol text: flow cytometry tetramer staining; % with MAGE-A4 tetramer divided by % with MAGE-A8 tetramer (reference)
Property name: MAGE-A4/MAGE-A8 (ratio of % tetramer in Ag+ gate)
Just the number, please.

In: Look up MAGE-A4/MAGE-A8 (ratio of % tetramer in Ag+ gate): PN45539 (TCR, V domains shown, stained with anti-mouse TCR constant region H57-597; full-length chains on transfected CHO cells; also called TCR No. 41) V domain 1: DAKTTQPPSMDCAEGRAANLPCNHSTISGNEYVYWYRQIHSQGPQYIIHGLKNNETNEMASLIITEDRKSSTLILPHATLRDTAVYYCIVRPYNAGNNRKLIWGLGTSLAVNP V domain 2: DVKVTQSSRYLVKRTGEKVFLECVQDMDHENMFWYRQDPGLGLRLIYFSYDVKMKEKGDIPEGYSVSREKKERFSLILESASTNQTSMYLCASSFEGGYYGYTFGSGTRLTVV
Out: 498

In: Look up MAGE-A4/MAGE-A8 (ratio of % tetramer in Ag+ gate): PN45546 (TCR, V domains shown, full-length chains on transfected CHO cells; also called TCR No. 53) V domain 1: AQTVTQSQPEMSVQEAETVTLSCTYDTSESDYYLFWYKQPPSRQMILVIRQEAYKQQNATENRFSVNFQKAAKSFSLKISDSQLGDAAMYFCAYRSGAGGTSYGKLTFGQGTILTVHP V domain 2: DAGVTQSPTHLIKTRGQQVTLRCSPISGHKSVSWYQQVLGQGPQFIFQYYEKEERGRGNFPDRFSARQFPNYSSELNVNALLLGDSALYLCASSIRDTYGYTFGSGTRLTVV
Out: 1.23
